gcPBM binding intensity (ln): recorded values
# System: PfAP2-G AP2 domain (GST-tagged)
# assay-remarks: gcPBM binding intensity (ln(normalized median fluorescence intensity)); higher = stronger DNA binding
Over roughly 25,000 sequences, “ln(normalized median fluorescence intensity)” has its median near 10; the highest 2% begin near 12. The sample as a whole holds a higher share of the highest values than the screen did.
Please reply with the value in numeric form only.

[[record]]
monomer_sequence = "ATATTTTCTAATCAATGTACTTATTCTACACATTAA [XGTACX_site5774]"
val = 11.3

[[record]]
monomer_sequence = "AAATAAATCTTATGCACACAAATAATTAATTAAACA [CACACA_site1693]"
val = 10.1

[[record]]
monomer_sequence = "TATCATATATGAAGGTGTACGATTTATTATATAAAT [XGTACX_site7010]"
val = 11.4

[[record]]
monomer_sequence = "TATATTATTATGCATAGTACGTACTGTGATAAGAAT [XGTACX_site2956]"
val = 11.4

[[record]]
monomer_sequence = "AAAAAATATACATATTGTACATTTTTTATTAACACA [XGTACX_site6415]"
val = 10.8


So what does the record say about gcPBM binding intensity (ln) for TGCACAAAGTTATGCACACACCTAAAATTAATTTTT [CACACA_site7385] ?
10.1

Same question, TTATATTTATATATTTGTACGTATGTATATAATTCA [XGTACX_site2993] this time
11.4

Same question, GACCATATGAATAATGCACACGTTTTAAAATATTAA [CACACA_site5312] this time
10.2

Same question, AGAAATTAATCGAGGTGTACGTACATCCAAATATAT [XGTACX_site7650] this time
11.8

---

# Test system: PfAP2-G AP2 domain (GST-tagged)
# assay-remarks: gcPBM binding intensity (ln(normalized median fluorescence intensity)); higher = stronger DNA binding
Over roughly 25,000 sequences, “ln(normalized median fluorescence intensity)” has its median near 10; the highest 2% begin near 12. Only a selection was taken, and the highest values are over-represented in it overall.
quantity-measured: gcPBM binding intensity (ln)
Please reply with the value in numeric form only.

Observe how each entry below is paired with its result.
[[record]]
monomer_sequence = "TAAACAGTATGCAACGCATGCGTTGTTATATATAAA [TGCATGCA_site232]"
val = 9.88

[[record]]
monomer_sequence = "CAAAAAATATATTTTTGTACTTATGTTTTTATTTTG [XGTACX_site5230]"
val = 11.1

[[record]]
monomer_sequence = "ATATAGAACACCTGTGCATGCAAGTGCTAAAAAATT [TGCATGCA_site213]"
val = 10.2

[[record]]
monomer_sequence = "GATATAAGGGTATGAAGTACATAAATATTTTATGCT [XGTACX_site1886]"
val = 11.3

[[record]]
monomer_sequence = "ATAAATATAACATATTGTACCCTTAAAAAGGAACAA [XGTACX_site352]"
val = 11.7

[[record]]
monomer_sequence = "ATATATATATATATATGTACTTAATATTTCTTATTT [XGTACX_site6206]"
val = 11


So what does the record say about gcPBM binding intensity (ln) for TACATATTTTTTATGTGTACATATTTTTTATGTGTG [XGTACX_site444] ?
11.5

Same question, ATATAAATATAAACATGTACATATATATATATATAT [XGTACX_site2824] this time
11.1

Same question, TATATATATATATATTGTACTTTATTTTATATATTC [XGTACX_site5697] this time
11.2

Same question, "ATATATACTATAATAGTGCATTAAAAAAGTAAAAAT" this time
10.2
